In this section we review reported pEC50 values for a set of compounds.
# Tested Target: Epidermal growth factor receptor (Homo sapiens)
# Sequence (P00533 whole entry): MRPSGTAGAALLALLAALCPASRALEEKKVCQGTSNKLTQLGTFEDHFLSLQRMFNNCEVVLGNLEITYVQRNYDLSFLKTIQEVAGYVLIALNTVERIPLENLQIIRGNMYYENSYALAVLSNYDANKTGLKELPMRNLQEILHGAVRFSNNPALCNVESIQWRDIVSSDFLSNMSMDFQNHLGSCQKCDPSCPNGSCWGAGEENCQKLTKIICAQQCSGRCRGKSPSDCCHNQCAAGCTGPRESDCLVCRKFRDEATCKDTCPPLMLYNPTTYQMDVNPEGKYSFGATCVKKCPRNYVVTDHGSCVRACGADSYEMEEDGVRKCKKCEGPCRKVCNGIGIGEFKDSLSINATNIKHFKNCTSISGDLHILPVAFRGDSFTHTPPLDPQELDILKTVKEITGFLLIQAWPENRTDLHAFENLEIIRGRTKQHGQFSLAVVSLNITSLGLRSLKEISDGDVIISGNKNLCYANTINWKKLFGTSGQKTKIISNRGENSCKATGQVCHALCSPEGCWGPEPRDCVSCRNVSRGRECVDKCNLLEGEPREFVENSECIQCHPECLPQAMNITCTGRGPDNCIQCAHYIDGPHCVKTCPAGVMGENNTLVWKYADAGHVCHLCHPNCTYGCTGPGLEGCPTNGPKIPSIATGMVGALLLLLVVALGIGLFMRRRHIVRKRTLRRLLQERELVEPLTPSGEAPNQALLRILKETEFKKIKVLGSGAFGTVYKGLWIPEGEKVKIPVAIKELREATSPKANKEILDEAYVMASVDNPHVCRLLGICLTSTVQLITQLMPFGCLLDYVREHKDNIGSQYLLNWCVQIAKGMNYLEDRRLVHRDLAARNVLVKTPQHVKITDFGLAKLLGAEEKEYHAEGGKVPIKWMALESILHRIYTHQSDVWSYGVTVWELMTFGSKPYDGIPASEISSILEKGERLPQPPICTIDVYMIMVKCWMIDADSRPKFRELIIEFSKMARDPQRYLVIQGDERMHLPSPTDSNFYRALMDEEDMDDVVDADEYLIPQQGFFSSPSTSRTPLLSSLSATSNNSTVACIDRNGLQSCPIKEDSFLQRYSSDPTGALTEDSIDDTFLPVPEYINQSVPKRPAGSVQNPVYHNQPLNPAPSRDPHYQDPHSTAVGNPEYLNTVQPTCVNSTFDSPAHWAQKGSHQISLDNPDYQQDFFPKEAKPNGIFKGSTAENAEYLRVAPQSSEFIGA
# Assay Details: Inhibition of EGFR phosphorylation in IGF1 and EGF-stimulated human MiaPaCa2 cells pretreated for 6 hrs before IGF1 and EGF stimulation by ELISA
Please express pEC50 as -log10 of the molar concentration.

# Chemical Smiles, pEC50
data = [
    ("COc1ccccc1Cc1nc2ccc(-c3nn([C@H]4CC[C@H](N5CCN(C(C)=O)CC5)CC4)c4ncnc(N)c34)cc2[nH]1", 6.13),
    ("CCOC(=O)N1CCN([C@H]2CC[C@H](n3nc(-c4ccc5nc(Cc6ccccc6OC)[nH]c5c4)c4c(N)ncnc43)CC2)CC1", 6.28),
    ("COc1ccccc1Cc1nc2ccc(-c3nn([C@H]4CC[C@H](N5CCN(C(=O)N(C)C)CC5)CC4)c4ncnc(N)c34)cc2[nH]1", 6.09),
    ("COc1ccccc1Cc1nc2ccc(-c3nn([C@H]4CC[C@H](N5CCN(CC6CC6)CC5)CC4)c4ncnc(N)c34)cc2[nH]1", 7.04),
    ("COCCCN1CCN([C@H]2CC[C@H](n3nc(-c4ccc5nc(Cc6ccccc6OC)[nH]c5c4)c4c(N)ncnc43)CC2)CC1", 7.07),
]

Now turn to the next compound.
Short answer please: pEC50, Epidermal growth factor receptor (Homo sapiens), entry COc1ccccc1Cc1nc2ccc(-c3nn([C@H]4CC[C@H](N5CCNCC5)CC4)c4ncnc(N)c34)cc2[nH]1
6.47

====

# Assay Details: Half life in mouse
# Assay type: ADME, organism-based
# Cond: in vivo
Measurement Type: half-life (h)
Entry rule: numbers only, all in h.

State the recorded half-life for this entry: COCCCN1CCN([C@H]2CC[C@H](n3nc(-c4ccc5nc(Cc6ccccc6OC)[nH]c5c4)c4c(N)ncnc43)CC2)CC1
3.1

====

# Tested Target: Cytochrome P450 2D6 (Homo sapiens, UniProt P10635)
# Sequence (P10635 whole entry): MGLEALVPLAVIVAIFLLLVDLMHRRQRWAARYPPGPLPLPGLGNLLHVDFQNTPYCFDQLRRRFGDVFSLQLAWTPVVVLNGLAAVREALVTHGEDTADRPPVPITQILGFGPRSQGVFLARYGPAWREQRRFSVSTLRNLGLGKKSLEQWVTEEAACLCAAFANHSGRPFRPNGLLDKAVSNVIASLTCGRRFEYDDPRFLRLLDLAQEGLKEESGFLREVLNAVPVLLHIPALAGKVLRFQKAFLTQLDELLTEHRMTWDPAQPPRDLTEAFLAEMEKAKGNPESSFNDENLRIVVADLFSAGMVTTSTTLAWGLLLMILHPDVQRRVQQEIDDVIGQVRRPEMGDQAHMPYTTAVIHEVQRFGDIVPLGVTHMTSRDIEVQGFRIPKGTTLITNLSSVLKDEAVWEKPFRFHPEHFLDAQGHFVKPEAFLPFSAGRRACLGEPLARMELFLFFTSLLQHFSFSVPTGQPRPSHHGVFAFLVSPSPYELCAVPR
Measurement Type: IC50

Short answer please: IC50, Cytochrome P450 2D6 (Homo sapiens, UniProt P10635), entry COCCCN1CCN([C@H]2CC[C@H](n3nc(-c4ccc5nc(Cc6ccccc6OC)[nH]c5c4)c4c(N)ncnc43)CC2)CC1
1600 nM

====

# Assay Details: Oral bioavailability in mouse
# Assay type: ADME, organism-based
# Cond: in vivo
Measurement Type: bioavailability (%)
Entry rule: numbers only, all in %.

State the recorded bioavailability for this entry: COCCCN1CCN([C@H]2CC[C@H](n3nc(-c4ccc5nc(Cc6ccccc6OC)[nH]c5c4)c4c(N)ncnc43)CC2)CC1
12

====

# Tested Target: Insulin-like growth factor 1 receptor (Homo sapiens)
# Sequence (P08069 31-736 limits assumed): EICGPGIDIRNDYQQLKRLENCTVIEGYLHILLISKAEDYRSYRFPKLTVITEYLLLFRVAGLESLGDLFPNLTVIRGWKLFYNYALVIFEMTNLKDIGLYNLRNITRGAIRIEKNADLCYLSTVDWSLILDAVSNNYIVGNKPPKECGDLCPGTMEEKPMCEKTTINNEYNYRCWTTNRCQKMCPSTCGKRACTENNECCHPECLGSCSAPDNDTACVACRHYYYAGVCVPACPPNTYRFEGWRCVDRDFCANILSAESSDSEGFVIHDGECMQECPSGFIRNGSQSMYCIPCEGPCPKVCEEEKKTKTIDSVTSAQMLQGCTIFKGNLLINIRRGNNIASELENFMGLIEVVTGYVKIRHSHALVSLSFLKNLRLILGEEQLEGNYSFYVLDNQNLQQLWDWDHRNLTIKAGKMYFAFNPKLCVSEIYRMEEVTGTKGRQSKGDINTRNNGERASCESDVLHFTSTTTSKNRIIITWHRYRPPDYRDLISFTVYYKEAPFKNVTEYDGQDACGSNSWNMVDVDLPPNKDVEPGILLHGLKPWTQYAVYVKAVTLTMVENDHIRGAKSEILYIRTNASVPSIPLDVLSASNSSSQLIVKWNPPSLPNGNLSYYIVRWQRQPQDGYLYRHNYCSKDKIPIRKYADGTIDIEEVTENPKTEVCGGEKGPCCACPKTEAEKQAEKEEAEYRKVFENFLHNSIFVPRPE
# Sequence (P08069 741-1367 limits assumed): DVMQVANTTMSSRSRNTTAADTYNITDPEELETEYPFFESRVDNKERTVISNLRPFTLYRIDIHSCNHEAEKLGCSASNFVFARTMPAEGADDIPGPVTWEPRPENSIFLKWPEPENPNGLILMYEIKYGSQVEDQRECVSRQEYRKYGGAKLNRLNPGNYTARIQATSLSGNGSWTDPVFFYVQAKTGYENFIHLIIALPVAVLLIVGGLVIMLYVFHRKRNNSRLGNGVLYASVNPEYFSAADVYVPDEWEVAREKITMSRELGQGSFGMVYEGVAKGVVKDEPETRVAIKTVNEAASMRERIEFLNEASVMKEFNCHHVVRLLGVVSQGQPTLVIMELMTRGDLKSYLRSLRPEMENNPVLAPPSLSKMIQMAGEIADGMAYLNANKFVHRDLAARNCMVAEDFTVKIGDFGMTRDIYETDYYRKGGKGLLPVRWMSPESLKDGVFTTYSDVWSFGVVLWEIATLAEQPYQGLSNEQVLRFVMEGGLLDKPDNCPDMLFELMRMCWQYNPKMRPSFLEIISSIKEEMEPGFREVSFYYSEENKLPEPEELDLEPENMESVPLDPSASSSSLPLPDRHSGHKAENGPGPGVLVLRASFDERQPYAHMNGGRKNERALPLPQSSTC
Measurement Type: IC50 (nM)
Entry rule: numbers only, all in nM.

# Chemical Smiles, Observed Result
records = [
    ("COc1ccccc1Cc1nc2ccc(-c3nn([C@H]4CC[C@H](N5CCN(CC6CC6)CC5)CC4)c4ncnc(N)c34)cc2[nH]1", 40),
    ("Nc1ncnc2c1c(-c1ccc3nc(Cc4ccccc4Cl)[nH]c3c1)nn2[C@H]1CC[C@H](N2CCOCC2)CC1", 36),
    ("COc1ccccc1Cc1nc2ccc(-c3nn([C@H]4CC[C@H](N5CCNCC5)CC4)c4ncnc(N)c34)cc2[nH]1", 26),
    ("Nc1ncnc2c1c(-c1ccc3nc(Cc4cccs4)[nH]c3c1)nn2[C@H]1CC[C@H](N2CCOCC2)CC1", 25),
    ("COCCCN1CCN([C@H]2CC[C@H](n3nc(-c4ccc5nc(Cc6ccccc6OC)[nH]c5c4)c4c(N)ncnc43)CC2)CC1", 81),
    ("CCOC(=O)N1CCN([C@H]2CC[C@H](n3nc(-c4ccc5nc(Cc6ccccc6OC)[nH]c5c4)c4c(N)ncnc43)CC2)CC1", 309),
]

Now turn to the next compound.
State the recorded IC50 for this entry: COc1ccccc1Cc1nc2ccc(-c3nn([C@H]4CC[C@H](N5CCN(C(=O)N(C)C)CC5)CC4)c4ncnc(N)c34)cc2[nH]1
69

Measured values drawn from ChEMBL document CHEMBL1153290 for this set.
